- PROCEDURE TEXT: Cell Viability - LYMP2-020 (AID 986);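 note: cells exposed to compound for 24 h at 37 °C; nearly all actives have a fitted effect of over 55% in size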
- CONDITIONS: series mostly up to 92.2 µM
Results filed as inconclusive are left out. Active and inactive are the calls of the source. Calls come from the whole dose curve; as a rule, active = well fitted cell-killing curve with a large enough effect; inconclusive = small, poorly fitted or top-dose-only effect; inactive = flat fitted curve, though single readings scatter.
The reply should name one outcome from yes (1) = active, no (0) = inactive

A selection of reference data follows.
>>> class_assignment("CC(C)OC(=O)Cc1ccccc1")
"no (0)"
>>> class_assignment("O=C(O)C(Br)Br")
"no (0)"
>>> class_assignment("Nc1ncc([N+](=O)[O-])s1")
"no (0)"

Inquiry: Entry `Cc1cc(C)cc(OP(=O)(Oc2cc(C)cc(C)c2)Oc2cc(C)cc(C)c2)c1` : call = ?
Reply text: no (0)

Inquiry: Entry `Oc1cc(Cl)cc(Cl)c1` : call = ?
Reply text: no (0)

Inquiry: Entry `CN1CSC(=S)N(C)C1` : call = ?
Reply text: yes (1)

Inquiry: Entry Clc1ccc(C(c2ccccc2Cl)C(Cl)(Cl)Cl)cc1 (configuration not stated) : call = ?
Reply text: no (0)

Inquiry: Entry `CC(=O)NNc1ccccc1` : call = ?
Reply text: no (0)

Inquiry: Entry c1ccc(OCC2CO2)cc1 (configuration not stated) : call = ?
Reply text: no (0)

Inquiry: Entry `ClCC(Cl)Cl` : call = ?
Reply text: no (0)

Inquiry: Entry `CCN(CC)CCO` : call = ?
Reply text: no (0)

Inquiry: Entry `Nc1c(Cl)cc([N+](=O)[O-])cc1Cl` : call = ?
Reply text: no (0)

Inquiry: Entry `Nn1cnnc1` : call = ?
Reply text: no (0)

* * *

- System: HIV-1 nucleocapsid protein NCp7 (binding to TG oligonucleotide)
- PROCEDURE TEXT: HIV Nucleocapsid (AID 346);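 note: potency is for inhibitors that block NC binding and lower polarization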
- CONDITIONS: HIV-1 NC / fluorescein-TGTGTGTG probe, fluorescence polarization
- Description: NCGC Assay Overview: HIV-1 nucleocapsid protein (HIV-1 NC) is a small (6.5 kDa) basic zinc-finger protein which participates in packaging of viral genomic RNA. The spacing and metal-chelating residues (3 Cys, 1 His) of the Cys-X2-Cys-X4-His-X4-Cys Zn fingers are conserved among all known retroviruses (J. Med. Chem. 1998, 41, 1371-1381). […] NCGC Assay Protocol Summary: Buffer. […] The plates were incubated for 1 hr at room temperature, and then read on ViewLux (Perkin-Elmer). […]
Activity calls are given as the source filed them. How the calls were made is not given here.
The reply should name one outcome from active, inactive

>>> class_assignment("COc1cccc(-c2nc(N3CCNCC3)c3ccccc3n2)c1")
"inactive"

Inquiry: Entry `CCNc1ncc2nc(-c3cccc(C#N)c3)c(=O)n(CCC#N)c2n1` : call = ?
Reply text: inactive

Inquiry: Entry `Cc1ccccc1-c1cncnc1NC1CCNCC1` : call = ?
Reply text: inactive

Inquiry: Entry `CS(=O)(=O)Nc1cccc(-c2cc(NCc3cccs3)ncn2)c1` : call = ?
Reply text: inactive

Inquiry: Entry `Cc1noc(C)c1C(=O)N1CCC[C@@]2(CCN(c3cccc(-c4ccccc4)c3)C2)C1` : call = ?
Reply text: inactive

Inquiry: Entry `CN(C)Cc1ccccc1-c1nccc(N(C)Cc2ccco2)n1` : call = ?
Reply text: inactive

Inquiry: Entry `N#Cc1cccc(NC(=O)N2CC[C@@]3(CCCN(C(=O)c4ccco4)C3)C2)c1` : call = ?
Reply text: inactive

Inquiry: Entry `COc1ccc2[nH]cc(CCNc3cc(-c4ccoc4)ncn3)c2c1` : call = ?
Reply text: inactive
